- target: Aldehyde dehydrogenase, mitochondrial (Homo sapiens) (UniProt P05091)
- method.description: qHTS for Inhibitors of the Aldehyde Dehydrogenase Family (ALDH2) Primary screen (AID 2061308); also: nearly all actives have a fitted effect of over 55% in size
- condition.label: ALDH2 enzyme inhibition qHTS, 1536-well; series mostly up to 56 µM
Records with an inconclusive call do not appear. The source made the active and inactive calls. Calls follow the shape of the dose curve; as a rule, active = well fitted inhibition curve with a large enough effect; inconclusive = small, poorly fitted or top-dose-only effect; inactive = flat fitted curve, though single readings scatter.
readout: activity change, negative = inhibition

compound	activity change, negative = inhibition
CC1CC(=O)C2C(O)(C1)CC(O)C13OC1c1c(O)cccc1C(=O)C23O (configuration not stated)	inactive
CC(=O)OCCC(C)CCC1C(C)(O)CCC2C(C)(C)CCCC21C (configuration not stated)	inactive
CCC(C)/C=C(C)/C=C/C1=CC2=C(Cl)C(=O)C(C)(OC(C)=O)C(=O)C2=CN1C(CCCN=C(N)N)C(=O)O (configuration not stated)	inactive
COc1ccc(CC2NCCc3c2[nH]c2ccc(C)cc32)cc1OC (configuration not stated)	inactive
CC(C)C1(O)NC(=O)C(CC2(O)c3ccccc3N3C(=O)C(C)(C)NC32)n2c1nc1ccccc1c2=O (configuration not stated)	inactive

Item CC1(C)CC[C@]2(C(=O)O[C@@H]3O[C@H](CO)[C@@H](O)[C@H](O)[C@H]3O)[C@H](O)C[C@]3(C)C(=CCC4[C@@]5(C)CC[C@H](O[C@@H]6OC[C@@H](O)[C@H](O)[C@H]6O)[C@@](C)(C(=O)O)C5CC[C@]43C)[C@@H]2C1 (some centres not stated) was tested on Aldehyde dehydrogenase, mitochondrial (Homo sapiens) (UniProt P05091); the reported activity change, negative = inhibition is inactive

Item: COC(=O)C1=CO[C@@H](O[C@@H]2O[C@H](CO[C@@H]3O[C@H](CO)[C@@H](O)[C@H](O)[C@H]3O)[C@@H](O)[C@H](O)[C@H]2O)[C@@H]2C(CO)=CC[C@H]12 | System: Aldehyde dehydrogenase, mitochondrial (Homo sapiens) (UniProt P05091) | activity change, negative = inhibition: inactive
